tested system: T1, EsCas13d, nuclease-dead (Eubacterium siraeum, UniProt B0MS50, R295A;H300A;R849A;H854A)
T1 sequence: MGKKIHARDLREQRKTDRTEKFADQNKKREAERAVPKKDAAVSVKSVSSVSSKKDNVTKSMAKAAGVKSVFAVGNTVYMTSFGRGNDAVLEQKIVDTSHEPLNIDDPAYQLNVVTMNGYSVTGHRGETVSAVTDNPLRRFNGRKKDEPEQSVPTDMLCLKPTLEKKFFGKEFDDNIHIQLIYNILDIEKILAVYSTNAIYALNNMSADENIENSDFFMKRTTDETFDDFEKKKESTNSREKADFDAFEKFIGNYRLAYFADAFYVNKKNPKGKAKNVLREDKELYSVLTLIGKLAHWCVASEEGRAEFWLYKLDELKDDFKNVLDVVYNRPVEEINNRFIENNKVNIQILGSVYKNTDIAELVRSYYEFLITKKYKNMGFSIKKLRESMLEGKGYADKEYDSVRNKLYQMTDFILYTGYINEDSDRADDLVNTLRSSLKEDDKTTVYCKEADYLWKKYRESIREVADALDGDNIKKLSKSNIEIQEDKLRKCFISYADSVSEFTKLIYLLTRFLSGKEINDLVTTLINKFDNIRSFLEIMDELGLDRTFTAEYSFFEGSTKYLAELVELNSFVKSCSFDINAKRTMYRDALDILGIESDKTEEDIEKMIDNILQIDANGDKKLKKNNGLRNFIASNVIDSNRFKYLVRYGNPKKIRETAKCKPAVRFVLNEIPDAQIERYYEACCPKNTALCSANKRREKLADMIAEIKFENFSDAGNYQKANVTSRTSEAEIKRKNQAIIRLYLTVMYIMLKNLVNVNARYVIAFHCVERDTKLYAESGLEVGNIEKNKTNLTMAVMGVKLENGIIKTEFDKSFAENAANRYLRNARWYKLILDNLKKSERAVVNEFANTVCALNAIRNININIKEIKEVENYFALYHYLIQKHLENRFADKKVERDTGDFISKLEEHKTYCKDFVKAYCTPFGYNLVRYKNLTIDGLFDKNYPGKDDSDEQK
test: crRNA (strand 1, pre-loaded); Mg2+; 40 mM Tris-HCl pH 7.5, 150 mM NaCl, 6 mM MgCl2, 1 mM DTT, 0.1% Tween-20, 0.2 mg/ml BSA; 25 C; 10 min per concentration, then washed
condition info: tags: His6-TwinStrep-SUMO cleaved; N-terminal SNAP kept (SNAP-Surface 488); label: 3' end held by stalled T7 RNA polymerase
Documented Kd across a set of binders
API: value field is a number in nM; no unit string.

Examples with answers:
binder | assay result
target 3 insU 3' of 6,insA 3' of 2 (mixed) RNA 1: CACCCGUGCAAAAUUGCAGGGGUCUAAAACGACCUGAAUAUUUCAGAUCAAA RNA 2: GGGAAUGGAUCCACAUCUACGAAUUCGUUUUUGAUCUGAAAUAUUCUAGGUACUGCAGAUCGGAAGAGCACACGU | 47
target 2 MT 5'PFS CUC 3'PFS CUC (mixed) RNA 1: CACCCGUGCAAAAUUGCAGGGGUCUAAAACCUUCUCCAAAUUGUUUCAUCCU RNA 2: GGGAAUGGAUCCACAUCUACGAAUUCCUCAGGAUGAAACAAUUUGGAGAAGCUCAGAUCGGAAGAGCACACGU | 3.1
target 3 insC 3' of 9,insA 3' of 8 (mixed) RNA 1: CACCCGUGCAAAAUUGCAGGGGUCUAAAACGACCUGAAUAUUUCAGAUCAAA RNA 2: GGGAAUGGAUCCACAUCUACGAAUUCGUUUUUGAUCUGAAAUACUAUCAGGUCUGCAGAUCGGAAGAGCACACGU | 43.9
target 2 MT 5'PFS UUA 3'PFS UUG (mixed) RNA 1: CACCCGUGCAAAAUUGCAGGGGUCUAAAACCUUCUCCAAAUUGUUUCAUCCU RNA 2: GGGAAUGGAUCCACAUCUACGAAUUCUUAAGGAUGAAACAAUUUGGAGAAGUUGAGAUCGGAAGAGCACACGU | 19.3
target 1 insC 3' of 19,insC 3' of 3 (mixed) RNA 1: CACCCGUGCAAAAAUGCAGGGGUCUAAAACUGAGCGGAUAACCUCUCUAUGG RNA 2: GGGAAUGGAUCCACAUCUACGAAUUCGUACCAUCAGAGAGGUUAUCCGCUCCACCGAGAUCGGAAGAGCACACGU | 30
target 1 insG 3' of 10,insU 3' of 6 (mixed) RNA 1: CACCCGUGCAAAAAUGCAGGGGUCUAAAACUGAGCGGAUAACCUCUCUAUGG RNA 2: GGGAAUGGAUCCACAUCUACGAAUUCGUACCAUAGAGAGGUUGAUCCUGCUCACCGAGAUCGGAAGAGCACACGU | 36.8
target 1 MT 5'PFS GUG 3'PFS UAC (mixed) RNA 1: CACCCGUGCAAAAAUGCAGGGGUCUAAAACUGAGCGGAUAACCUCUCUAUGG RNA 2: GGGAAUGGAUCCACAUCUACGAAUUCGUGCCAUAGAGAGGUUAUCCGCUCAUACAGAUCGGAAGAGCACACGU | 19.9

From here, focus on the item given below.
(Q) Return the recorded Kd value; entry: target 1 insC 3' of 12,insA 3' of 2 (mixed) RNA 1: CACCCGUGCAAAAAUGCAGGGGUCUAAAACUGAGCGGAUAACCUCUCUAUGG RNA 2: GGGAAUGGAUCCACAUCUACGAAUUCGUACCAUAGAGAGGCUUAUCCGCUCAACCGAGAUCGGAAGAGCACACGU
(A) 9.9
